- Tested on: NEO-101 antibody
- testSummary: Immunofluorescence of 293T cells transfected with MUC5AC truncation constructs
- Assay type: cell-based
- settings: 2 μg/ml NEO-101 antibody
endpoint: Binds NPC-1?

Solved entries:
[
  {
    "molecule": "Construct 1-187: C-terminal truncation construct of MUC5AC, SEQ ID NO: 48 (protein, MUC5AC truncation construct (187)) ATMSVGRRKLALLWALALALACTTTHSQPVTRDCHLRCTWTKWFDVDFPSPGPHGGDKETYNNIIRSGEKICRRPEEITRLQCRAESHPEVSIEHLGQVVQCSREEGLVCRNQDQQGPFKMCLNYEVRVLCCETPKGCPVTSTPVTAPSTPSGRATSPTQSTSSWQKSRTTTLVTTSTTSTPQTSTT",
    "Binds NPC-1?": "binding activity"
  },
  {
    "molecule": "1-136 (protein, MUC5AC truncation construct (136)) ATMSVGRRKLALLWALALALACTTTHSQPVTRDCHLRCTWTKWFDVDFPSPGPHGGDKETYNNIIRSGEKICRRPEEITRLQCRAESHPEVSIEHLGQVVQCSREEGLVCRNQDQQGPFKMCLNYEVRVLCCETPK",
    "Binds NPC-1?": "No"
  },
  {
    "molecule": "1-289 (protein, MUC5AC truncation construct (289)) ATMSVGRRKLALLWALALALACTTTHSQPVTRDCHLRCTWTKWFDVDFPSPGPHGGDKETYNNIIRSGEKICRRPEEITRLQCRAESHPEVSIEHLGQVVQCSREEGLVCRNQDQQGPFKMCLNYEVRVLCCETPKGCPVTSTPVTAPSTPSGRATSPTQSTSSWQKSRTTTLVTTSTTSTPQTSTTSAPTTSTTSAPTTSTTSAPTTSTTSTPQTSISSAPTSSTTSAPTSSTISARTTSIISAPTTSTTSSPTTSTTSATTTSTTSAPTSSTTSTPQTSKTSAATSS",
    "Binds NPC-1?": "Yes"
  },
  {
    "molecule": "1-187 (protein, MUC5AC truncation construct (187)) ATMSVGRRKLALLWALALALACTTTHSQPVTRDCHLRCTWTKWFDVDFPSPGPHGGDKETYNNIIRSGEKICRRPEEITRLQCRAESHPEVSIEHLGQVVQCSREEGLVCRNQDQQGPFKMCLNYEVRVLCCETPKGCPVTSTPVTAPSTPSGRATSPTQSTSSWQKSRTTTLVTTSTTSTPQTSTT",
    "Binds NPC-1?": "Yes"
  },
  {
    "molecule": "1-85 (protein, MUC5AC truncation construct (85)) ATMSVGRRKLALLWALALALACTTTHSQPVTRDCHLRCTWTKWFDVDFPSPGPHGGDKETYNNIIRSGEKICRRPEEITRLQCRA",
    "Binds NPC-1?": "No"
  }
]

Would you kindly look at the next entry?
Q: Need Binds NPC-1? of Construct 1-289: C-terminal truncation construct of MUC5AC, SEQ ID NO: 49 (protein, MUC5AC truncation construct (289)) ATMSVGRRKLALLWALALALACTTTHSQPVTRDCHLRCTWTKWFDVDFPSPGPHGGDKETYNNIIRSGEKICRRPEEITRLQCRAESHPEVSIEHLGQVVQCSREEGLVCRNQDQQGPFKMCLNYEVRVLCCETPKGCPVTSTPVTAPSTPSGRATSPTQSTSSWQKSRTTTLVTTSTTSTPQTSTTSAPTTSTTSAPTTSTTSAPTTSTTSTPQTSISSAPTSSTTSAPTSSTISARTTSIISAPTTSTTSSPTTSTTSATTTSTTSAPTSSTTSTPQTSKTSAATSS , thanks.
A: binding activity
